# system tested: PD-1
# assay notes: competition binding, 2nd experiment; rank among the clones; competitor not given
assay endpoint: Competition Binding, 2nd exp. (ranking)
Lab note: jot the number down without any unit.

Query: Value lookup for Competition Binding, 2nd exp. (ranking); key = Clone No. 2 (antibody, human IgG4 S228P, kappa, V domains shown) VH: EVQLVQSGAEVKKPGESLRISCKGSGYTFTTYWMHWVRQATGQGLEWMGNIYPGTGGSNFDEKFKNRVTITADKSTSTAYMELSSLRSEDTAVYYCTRWTTGTGAYWGQGTTVTVSS VL: DIQMTQSPSSLSASVGDRVTITCKSSQSLLDSGNQKNFLTWYQQKPGQAPRLLIYWASTRESGIPPRFSGSGYGTDFTLTINNIESEDAAYYFCQNDYSYPYTFGQGTKVEIKR
Reply: 2

Query: Value lookup for Competition Binding, 2nd exp. (ranking); key = Clone No. 4 (antibody, human IgG4 S228P, kappa, V domains shown) VH: EVQLVQSGAEVKKPGESLRISCKGSGYTFTTYWMHWIRQSPSRGLEWLGNIYPGTGGSNFDEKFKNRFTISRDNSKNTLYLQMNSLRAEDTAVYYCTRWTTGTGAYWGQGTTVTVSS VL: EIVLTQSPATLSLSPGERATLSCKSSQSLLDSGNQKNFLTWYQQKPGKAPKLLIYWASTRESGVPSRFSGSGSGTDFTFTISSLQPEDIATYYCQNDYSYPYTFGQGTKVEIKR
Reply: 15
